Attribution: patent US11814447B2

# target: T1, Human EphA2 (Ecto), C-terminal polyHis (Human, UniProt P29317 24-537)
# T1 construct: extracellular domain; also called EPH receptor A2; ephrin type-A receptor 2
# T1 sequence (P29317 24-537): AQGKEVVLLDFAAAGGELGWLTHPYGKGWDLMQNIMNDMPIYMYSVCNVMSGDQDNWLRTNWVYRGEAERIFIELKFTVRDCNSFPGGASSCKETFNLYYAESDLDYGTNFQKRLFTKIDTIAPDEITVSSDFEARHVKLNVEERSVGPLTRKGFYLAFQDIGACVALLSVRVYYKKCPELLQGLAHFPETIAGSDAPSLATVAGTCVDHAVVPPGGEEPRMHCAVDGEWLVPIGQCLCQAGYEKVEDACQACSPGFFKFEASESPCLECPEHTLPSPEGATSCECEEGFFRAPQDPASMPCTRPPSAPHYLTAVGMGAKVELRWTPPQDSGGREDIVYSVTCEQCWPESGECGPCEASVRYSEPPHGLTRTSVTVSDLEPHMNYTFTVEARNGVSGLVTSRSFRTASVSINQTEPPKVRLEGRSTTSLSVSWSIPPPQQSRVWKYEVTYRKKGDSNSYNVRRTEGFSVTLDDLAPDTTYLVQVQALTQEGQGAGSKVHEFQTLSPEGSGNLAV
# protocolDetails: fluorescence polarisation competition; competitor fluorescent Compound 18
pKi: −log10 of the molar value. Starred links: 1 amine or outer side, 2 acyl side, 3 side chain; linkers in the order of their positions; H or OH if unused. Positions of bridges follow the written chain, without caps; N, C: chain ends. Non-standard residues stand in square brackets, D forms with d. Primed or numbered codes have the meaning given here. No end group written: not given here. TBMB′ = 1,3,5-tris(bromomethyl)benzene, 1,3,5-tris(methylene)benzene core, three thioethers to Cys; 1Nal = N[C@@H](Cc1cccc2ccccc12)C(=O)O; TBMB = c1c(C[*:1])cc(C[*:3])cc1C[*:2]; Hyp = O=C(O)[C@@H]1C[C@@H](O)CN1; hArg = N=C(N)NCCCC[C@H](N)C(=O)O; Tle = CC(C)(C)[C@H](N)C(=O)O; Aib = CC(C)(N)C(=O)O; Sar = CNCC(=O)O
Recorded pKi by entry
quantityKind: pKi

INSERT INTO assay_data (binder, quantitykind, valuemeasured) VALUES
  ('[Sar][Sar]ACP[1Nal]GPFWCPVNRP[dA]C (linker 4-11-18 via TBMB) [Bicycle Compound Number 116 (TBMB scaffold)]', 'pKi', 8.53),
  ('[Sar][Sar]AC[Aib][1Nal]GPFWCPVNRP[dA]C (linker 4-11-18 via TBMB) [Bicycle Compound Number 125 (TBMB scaffold)]', 'pKi', 8.19),
  ('[Sar][Sar]ACPWGPF[1Nal]CPVNRPGC (linker 4-11-18 via TBMB′, also called Compound 96) [Bicycle Compound Number 96 (TBMB scaffold)]', 'pKi', 7.50),
  ('[Sar][Sar]ACP[1Nal]G[Aib]FWCP[Tle]NRPGC (linker 4-11-18 via TBMB, also called Sar2-ACP(1Nal)G(Aib)FWCP(tBuGly)NRPGC) [Bicycle Compound Number 126 (TBMB scaffold)]', 'pKi', 7.82),
  ('[Sar][Sar]ACPWGPFWCPVNR[Hyp]GC (linker 4-11-18 via TBMB) [Bicycle Compound Number 107 (TBMB scaffold)]', 'pKi', 7.31),
  ('ACPWGPFWCPVNRPGCA (linker 2-9-16 via TBMB, also called Compound 69) [Bicycle Compound Number 69 (TBMB scaffold)]', 'pKi', 6.97),
  ('[Sar][Sar]ACPWGPF[1Nal]CPVNRP[dA]C (linker 4-11-18 via TBMB, also called Sar2-ACPWGPF(1Nal)CPVNRP(D-Ala)C) [Bicycle Compound Number 118 (TBMB scaffold)]', 'pKi', 7.43),
  ('[Sar][Sar]ACP[1Nal]GPFWCP[Tle][dA]RPGC (linker 4-11-18 via TBMB, also called Sar2-ACP(1Nal)GPFWCP(tBuGly)(D-Ala)RPGC) [Bicycle Compound Number 129 (TBMB scaffold)]', 'pKi', 7.64),
  ('[Sar][Sar]ACP[1Nal]G[Aib]FWCP[Tle]N[hArg]PGC (linker 4-11-18 via TBMB) [Bicycle Compound Number 136 (TBMB scaffold)]', 'pKi', 7.64),
  ('AHDVPCPWGPFWCPVNRPGCA (linker 6-13-20 via TBMB (inferred), also called Compound 59) [Bicycle Compound Number 59 (TBMB scaffold)]', 'pKi', 9.27),
  ('[Sar][Sar]AC[Aib][1Nal]G[Aib]FWCPVNR[Aib]GC (linker 4-11-18 via TBMB) [Bicycle Compound Number 135 (TBMB scaffold)]', 'pKi', 7.37);
